Taken from the NIST ThermoML archive (doi:10.1016/j.fluid.2007.10.013).

experiment: xn = mol fraction of the nth substance listed; conditions: 298.2 K; 101 kPa; Liquid; Taylor dispersion method; x1 = 0
measured.metric: binary diffusion coefficient (m2/s)
All answers are understood in m2/s, so give the number only.

Q: Any idea what binary diffusion coefficient was measured for C[C@@H](O)[C@H](N)C(=O)O [DL-threonine] + O ?
A: 7.99e-09

Q: Any idea what binary diffusion coefficient was measured for NC(CO)C(=O)O (centres undefined) [(.+-.)-serine] + O ?
A: 8.8e-10

Q: Any idea what binary diffusion coefficient was measured for NC(CCO)C(=O)O (stereo not drawn) [DL-2-amino-4-hydroxybutanoic acid] + O ?
A: 8.39e-10

Q: Any idea what binary diffusion coefficient was measured for C[C@H](O)[C@H](N)C(=O)O [DL-allothreonine] + O ?
A: 7.96e-10

* * *

assay: xn = mol fraction of the nth substance listed; conditions: 333.2 K; 101 kPa; Liquid; Taylor dispersion method; x1 = 0
measured.metric: binary diffusion coefficient
Don't forget the unit after the number, please.

Q: Any idea what binary diffusion coefficient was measured for C[C@@H](O)[C@H](N)C(=O)O [DL-threonine] + O ?
A: 1.72e-08 m2/s

Q: Any idea what binary diffusion coefficient was measured for C[C@H](O)[C@H](N)C(=O)O [DL-allothreonine] + O ?
A: 1.72e-09 m2/s

Q: Any idea what binary diffusion coefficient was measured for NC(CO)C(=O)O (centres undefined) [(.+-.)-serine] + O ?
A: 1.88e-09 m2/s

Q: Any idea what binary diffusion coefficient was measured for NC(CCO)C(=O)O (stereo not drawn) [DL-2-amino-4-hydroxybutanoic acid] + O ?
A: 1.78e-09 m2/s

* * *

test: xn = mol fraction of the nth substance listed; settings: 303.2 K; 101 kPa; Liquid; Taylor dispersion method; x1 = 0
For each record, write down the corresponding binary diffusion coefficient.
All answers are understood in m2/s, so give the number only.

Q: Any idea what binary diffusion coefficient was measured for NC(CCO)C(=O)O (stereo not drawn) [DL-2-amino-4-hydroxybutanoic acid] + O ?
A: 9.39e-10

Q: Any idea what binary diffusion coefficient was measured for C[C@@H](O)[C@H](N)C(=O)O [DL-threonine] + O ?
A: 9.04e-09

Q: Any idea what binary diffusion coefficient was measured for C[C@H](O)[C@H](N)C(=O)O [DL-allothreonine] + O ?
A: 9.06e-10

Q: Any idea what binary diffusion coefficient was measured for NC(CO)C(=O)O (centres undefined) [(.+-.)-serine] + O ?
A: 9.91e-10

* * *

For each record, write down the corresponding binary diffusion coefficient.
experiment: xn = mol fraction of the nth substance listed; conditions: 313.2 K; 101 kPa; Liquid; Taylor dispersion method; x1 = 0
All answers are understood in m2/s, so give the number only.

Q: Any idea what binary diffusion coefficient was measured for NC(CO)C(=O)O (centres undefined) [(.+-.)-serine] + O ?
A: 1.26e-09

Q: Any idea what binary diffusion coefficient was measured for NC(CCO)C(=O)O (stereo not drawn) [DL-2-amino-4-hydroxybutanoic acid] + O ?
A: 1.19e-09

Q: Any idea what binary diffusion coefficient was measured for C[C@@H](O)[C@H](N)C(=O)O [DL-threonine] + O ?
A: 1.14e-08

Q: Any idea what binary diffusion coefficient was measured for C[C@H](O)[C@H](N)C(=O)O [DL-allothreonine] + O ?
A: 1.14e-09

* * *

For each record, write down the corresponding binary diffusion coefficient.
assay: xn = mol fraction of the nth substance listed; details: 323.2 K; 101 kPa; Liquid; Taylor dispersion method; x1 = 0
All answers are understood in m2/s, so give the number only.

Q: Any idea what binary diffusion coefficient was measured for C[C@@H](O)[C@H](N)C(=O)O [DL-threonine] + O ?
A: 1.43e-08

Q: Any idea what binary diffusion coefficient was measured for C[C@H](O)[C@H](N)C(=O)O [DL-allothreonine] + O ?
A: 1.42e-09

Q: Any idea what binary diffusion coefficient was measured for NC(CO)C(=O)O (centres undefined) [(.+-.)-serine] + O ?
A: 1.55e-09

Q: Any idea what binary diffusion coefficient was measured for NC(CCO)C(=O)O (stereo not drawn) [DL-2-amino-4-hydroxybutanoic acid] + O ?
A: 1.47e-09
